- TEST TARGET: human PSMA (Homo sapiens (Human), UniProt Q04609)
- Sequence (Q04609 whole entry): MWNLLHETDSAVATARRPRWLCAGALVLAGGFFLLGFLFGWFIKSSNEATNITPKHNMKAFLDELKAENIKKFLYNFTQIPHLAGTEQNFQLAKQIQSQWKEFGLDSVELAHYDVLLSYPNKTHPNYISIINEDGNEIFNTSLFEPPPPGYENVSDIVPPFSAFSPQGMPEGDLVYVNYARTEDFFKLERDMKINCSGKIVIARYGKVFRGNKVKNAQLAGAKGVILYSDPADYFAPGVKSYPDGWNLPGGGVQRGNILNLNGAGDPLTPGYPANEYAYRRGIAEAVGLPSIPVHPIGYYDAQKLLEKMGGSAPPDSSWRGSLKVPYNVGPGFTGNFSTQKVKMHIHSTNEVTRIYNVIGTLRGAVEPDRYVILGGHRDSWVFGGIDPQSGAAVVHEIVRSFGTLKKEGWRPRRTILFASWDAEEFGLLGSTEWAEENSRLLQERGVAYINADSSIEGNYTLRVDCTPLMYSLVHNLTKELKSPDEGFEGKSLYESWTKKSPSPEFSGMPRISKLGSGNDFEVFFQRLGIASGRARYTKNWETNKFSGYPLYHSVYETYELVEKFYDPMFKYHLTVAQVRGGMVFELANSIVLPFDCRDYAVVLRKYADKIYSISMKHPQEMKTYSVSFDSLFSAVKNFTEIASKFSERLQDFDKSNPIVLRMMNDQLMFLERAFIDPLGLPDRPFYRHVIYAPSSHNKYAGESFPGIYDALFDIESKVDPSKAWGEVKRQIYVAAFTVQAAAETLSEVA
- PROCEDURE DETAILS: Enzymatic assay for in vitro evaluation of PSMA inhibitors (fluorescent assay of PSMA activity, NAAG substrate, OPA detection of glutamate)
- Assay type: biochemical
- ASSAY CONTEXT: compound at 10 μM
Where a SMILES comes first, the peptide text is derived from it. [ ]: non-standard residue; d: D form. The star is where a group is joined. Boc = CC(C)(C)OC(=O)*; Nlys = NCCCCNCC(=O)O
If the reported PSMA Blkg % (10 μM) equals or exceeds 7%, assign Satisfied. If not, assign Not satisfied.

> print(dat)
                                    compound                               test.target  classification
 1  O=C(O)CC[C@@H](C(=O)O)N1C(=O)NC(=O)/C(=C(/O)CCC(NC(=O)OCC2c3ccccc3-c3ccccc32)C(=O)O)C1=O (stereo partly drawn)  human PSMA (Homo sapiens (Human), UniProt Q04609)       Satisfied
 2  CN(C(=O)N[C@@H](CCC(=O)O)C(=O)O)[C@@H](CCCCNC(=O)CN=[N+]=[N-])C(=O)O  human PSMA (Homo sapiens (Human), UniProt Q04609)       Satisfied
 3  O=C(O)CC[C@@H](C(=O)O)N1C(=O)CC(=O)N([C@@H](CCCCNC(=O)c2ccc(-n3cc(CCCF)nn3)cc2)C(=O)O)C1=O  human PSMA (Homo sapiens (Human), UniProt Q04609)       Satisfied
 4  CN(C(=O)[C@H](CC(=O)O)NC(=O)CCc1ccc(-n2cc(CCCF)nn2)cc1)[C@@H](CCC(=O)O)C(=O)O  human PSMA (Homo sapiens (Human), UniProt Q04609)       Satisfied
 5  O=C(O)CC[C@H](NC(=O)N[C@@H](CCCCNC(=O)Cn1cc(Cn2ccnc2[N+](=O)[O-])nn1)C(=O)O)C(=O)O  human PSMA (Homo sapiens (Human), UniProt Q04609)       Satisfied
 6  CN(C(=O)N[C@@H](CCC(=O)O)C(=O)O)[C@@H](CCCCNC(=O)c1ccc(-n2cc(CCCF)nn2)cc1)C(=O)O  human PSMA (Homo sapiens (Human), UniProt Q04609)       Satisfied
 7  O=C(O)CC[C@@H](C(=O)O)N1C(=O)/C(=C(/O)Cn2cc(CCCF)nn2)C(=O)N(Cc2ccccc2)C1=O  human PSMA (Homo sapiens (Human), UniProt Q04609)   Not satisfied
 8  O=C(O)CC[C@@H](C(=O)O)N(O)C(=O)N[C@@H](CCCCNC(=O)OCc1ccccc1)C(=O)O  human PSMA (Homo sapiens (Human), UniProt Q04609)       Satisfied
 9  O=C(O)CC[C@H](NC(=O)N(CC(=O)O)NC(=O)OCc1ccccc1)C(=O)O  human PSMA (Homo sapiens (Human), UniProt Q04609)   Not satisfied
10  Cc1ccc(-c2cn(CC(=O)N[C@@H](CC(=O)N[C@@H](CCC(=O)O)C(=O)O)C(=O)O)nn2)cc1  human PSMA (Homo sapiens (Human), UniProt Q04609)       Satisfied
11  CC(C)(C)OC(=O)NCCCC[C@H](NC(=O)N[C@@H](CCC(=O)O)C(=O)O)C(=O)O  human PSMA (Homo sapiens (Human), UniProt Q04609)       Satisfied
12  O=C(O)CC[C@@H](C(=O)O)N1C(=O)CC(=O)N(Cc2ccccc2)C1=O  human PSMA (Homo sapiens (Human), UniProt Q04609)   Not satisfied
13  CC(=O)N(CCCCNC(=O)OC(C)(C)C)CC(=O)N[C@@H](CCC(=O)O)C(=O)O [P040] (Ac-[Nlys](Boc)-Glu-OH)  human PSMA (Homo sapiens (Human), UniProt Q04609)       Satisfied
